# Assay method text: Pharmacokinetic study in mice, plasma concentrations by LC-MS/MS
# Condition info: mouse, in vivo, po, 20 mg/kg
Result type: Tmax (min)
The reply should contain only the number, in min.

Query :: Query (compound): CC[C@@]1(O)C(=O)OCc2c1cc1n(c2=O)Cc2c-1c(=O)c1cc(F)cc(C)c1n2C ; field requested: Tmax
Result :: 25.2

---

# Assay method text: Pharmacokinetic study in mice, plasma concentrations by LC-MS/MS
# Condition info: mouse, in vivo, iv, 2 mg/kg
Result type: Cmax (µg/mL)
Answer with a number only, understood to be in µg/mL.

Query :: Which value of Cmax has been reported for CC[C@@]1(O)C(=O)OCc2c1cc1n(c2=O)Cc2c-1c(=O)c1cc(F)cc(C)c1n2C in the records?
Result :: 0.604

---

# Assay method text: Pharmacokinetic study in mice, plasma concentrations by LC-MS/MS
# Condition info: mouse, in vivo, po, 20 mg/kg
Result type: half-life (h)
Express your answer in h, writing the number without its unit.

Query :: I would be grateful if you could share the reported half-life for CC[C@@]1(O)C(=O)OCc2c1cc1n(c2=O)Cc2c-1c(=O)c1cc(F)cc(C)c1n2C .
Result :: 2.25

---

# Assay method text: in vivo
# Condition info: male, CD-1, mouse, iv, 2 mg/kg
Each record here notes measured half-life.
A number alone suffices; assume min.

1. CC[C@@]1(O)C(=O)OCc2c1cc1n(c2=O)Cc2c-1c(=O)c1cc(F)ccc1n2[C@@H]1CCN(CCO)C1; 70.2

Next, consider the following compound.
Query :: Entry CC[C@@]1(O)C(=O)OCc2c1cc1n(c2=O)Cc2c-1c(=O)c1cc(F)ccc1n2[C@@H]1CCN(C)C1 : reported half-life = ?
Result :: 17.9

---

Listing of entries alongside the reported Cmax.
# Assay method text: in vivo
# Condition info: male, CD-1, mouse, po, 20 mg/kg
Kindly provide the numeric value in ng/mL only, without the unit symbol.

1) CC[C@@]1(O)C(=O)OCc2c1cc1n(c2=O)Cc2c-1c(=O)c1cc(F)ccc1n2[C@@H]1CCN(C)C1; 1120

Consider now this further molecule.
Query :: What Cmax value was documented for this molecule, CC[C@@]1(O)C(=O)OCc2c1cc1n(c2=O)Cc2c-1c(=O)c1cc(F)ccc1n2[C@@H]1CCN(CCO)C1 ?
Result :: 680

---

# Assay method text: in vivo
# Condition info: mouse, po, 10 mg/kg
Result type: AUC(0-t) at 24 h (ng·h/mL)
Enter your answer as a number in ng·h/mL; do not include the unit.

Query :: Query (molecule): CCc1c2c(nc3ccc(O)cc13)-c1cc3c(c(=O)n1C2)COC(=O)[C@]3(O)CC ; field requested: AUC(0-t) at 24 h
Result :: 0.23

---

# Assay method text: Pharmacokinetic study in mice, plasma concentrations by LC-MS/MS
# Condition info: mouse, in vivo, po, 20 mg/kg
Result type: AUC(0-t) at 24 h (ng·h/mL)
All answers are understood in ng·h/mL, so give the number only.

Query :: Item under review: CC[C@@]1(O)C(=O)OCc2c1cc1n(c2=O)Cc2c-1c(=O)c1cc(F)cc(C)c1n2C . Reported AUC(0-t) at 24 h?
Result :: 911

---

# Experimental target: topoisomerase I (Topo I) (Homo sapiens, UniProt P11387)
# Sequence (P11387 whole entry): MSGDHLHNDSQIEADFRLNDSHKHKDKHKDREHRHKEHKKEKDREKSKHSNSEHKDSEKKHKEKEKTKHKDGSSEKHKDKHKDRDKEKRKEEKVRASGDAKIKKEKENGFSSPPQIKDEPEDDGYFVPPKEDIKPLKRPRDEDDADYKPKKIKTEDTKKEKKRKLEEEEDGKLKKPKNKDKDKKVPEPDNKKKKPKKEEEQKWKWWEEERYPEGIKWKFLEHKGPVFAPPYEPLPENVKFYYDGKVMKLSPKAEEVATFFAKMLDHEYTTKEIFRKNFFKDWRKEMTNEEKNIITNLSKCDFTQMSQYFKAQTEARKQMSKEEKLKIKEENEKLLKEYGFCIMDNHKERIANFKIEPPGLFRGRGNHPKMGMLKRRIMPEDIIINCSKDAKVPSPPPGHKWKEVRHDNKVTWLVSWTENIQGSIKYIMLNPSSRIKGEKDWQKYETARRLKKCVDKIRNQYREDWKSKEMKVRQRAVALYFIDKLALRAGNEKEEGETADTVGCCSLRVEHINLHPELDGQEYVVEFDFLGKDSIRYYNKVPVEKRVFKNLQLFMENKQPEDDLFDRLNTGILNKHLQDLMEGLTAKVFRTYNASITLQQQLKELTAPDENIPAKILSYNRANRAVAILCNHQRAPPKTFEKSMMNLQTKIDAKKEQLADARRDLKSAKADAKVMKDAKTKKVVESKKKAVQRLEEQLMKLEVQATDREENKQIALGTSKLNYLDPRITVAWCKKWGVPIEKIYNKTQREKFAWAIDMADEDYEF
# Assay method text: Topo I enzyme-inhibitory activity by agarose-gel electrophoresis (plasmid relaxation)
# Format: biochemical
# Condition info: read-out: inhibition of topoisomerase I (Topo I) enzymatic activity, IC50; 0.75 U Topo I, pNO1 plasmid, 37 °C, 30 min; compounds listed by group (Group A / Group B)
pIC50: −log10 of the molar value.
Each entry below carries its recorded pIC50.

Worked cases, answers included:
1. CC[C@@]1(O)C(=O)OCc2c1cc1n(c2=O)Cc2c-1c(=O)c1cc(F)cc(OC)c1n2C; > 6.70
2. CC[C@@]1(O)C(=O)OCc2c1cc1n(c2=O)Cc2c-1c(=O)c1cc(F)c(C)cc1n2CCNC1CCC1; 6.30 to 6.70
3. CC[C@@]1(O)C(=O)OCc2c1cc1n(c2=O)Cc2c-1c(=O)c1cc(F)c(CNC3CC3)cc1n2C1CCCC1; 6.30 to 6.70
4. CC[C@@]1(O)C(=O)OCc2c1cc1n(c2=O)Cc2c-1c(=O)c1cc(F)ccc1n2-c1cccc(N)c1; 6.30 to 6.70
5. CC[C@@]1(O)C(=O)OCc2c1cc1n(c2=O)Cc2c-1c(=O)c1cc(F)ccc1n2CCN(C1CCC1)C1CC1; 6.30 to 6.70
6. CC[C@@]1(O)C(=O)OCc2c1cc1n(c2=O)Cc2c-1c(=O)c1cc(F)cnc1n2C; 6.30 to 6.70

Query :: # input compound: CC[C@@]1(O)C(=O)OCc2c1cc1n(c2=O)Cc2c-1c(=O)c1cc(F)ccc1n2CCN1C2CCC1CC(F)(F)C2 ; wanted: its pIC50
Result :: 6.30 to 6.70

Query :: What measured pIC50 goes with CC[C@@]1(O)C(=O)OCc2c1cc1n(c2=O)Cc2c-1c(=O)c1cc(F)ccc1n2CCNC1CCCC1(C)C (stereo partly shown) ?
Result :: 6.30 to 6.70

Query :: Recorded pIC50 for CC[C@@]1(O)C(=O)OCc2c1cc1n(c2=O)Cc2c-1c(=O)c1cc(F)ccc1n2CCN1CCCC1 , please?
Result :: 6.30 to 6.70

Query :: Recorded pIC50 of CC[C@@]1(O)C(=O)OCc2c1cc1n(c2=O)Cc2c-1c(=O)c1cc(F)c(C)cc1n2-c1ccc(N)cc1 , please.
Result :: 6.30 to 6.70

Query :: Recorded pIC50 of CC[C@@]1(O)C(=O)OCc2c1cc1n(c2=O)Cc2c-1c(=O)c1cc(F)ccc1n2CCN(C1CC1)C1CC1 , please.
Result :: > 6.70
